Molecular target: T1, human ROR1 'Ig-Frizzled domain' (human, UniProt Q01973)
T1 construct: used plain or biotinylated
T1 sequence (Q01973 30-305 limits assumed): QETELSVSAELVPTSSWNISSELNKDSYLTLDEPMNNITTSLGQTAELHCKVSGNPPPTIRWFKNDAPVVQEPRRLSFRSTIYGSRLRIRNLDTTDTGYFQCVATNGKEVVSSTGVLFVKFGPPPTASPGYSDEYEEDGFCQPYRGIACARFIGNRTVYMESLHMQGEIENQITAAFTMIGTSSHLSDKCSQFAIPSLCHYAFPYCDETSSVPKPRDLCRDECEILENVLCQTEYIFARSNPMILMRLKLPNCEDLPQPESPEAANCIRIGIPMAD
Assay: ELISA, direct coat; BCC supernatant
Reported ELISA OD450 values follow for various binders
Kindly answer with a numeric value in OD450, unit omitted.

In the examples that follow, each entry is paired with its recorded ELISA OD450.
{"Binder": "338H4 (antibody, V domains shown, chimeric counterpart m8; also called rabbit IgG of BCC well 338H4) VH: QSVEESGGRLVTPGTPLTLTCTVSGFSLSSYAMSWVRQAPGRGLEWIGIIYASGSTYYASWAKGRFTISKTSTTVDLKITSPTTEDTATYFCARIYDGMDLWGPGTLVTVSS VL: DIVMTQTPASVSAAVGGTVTINCQASQNIYSYLSWYQQKPGQPPKRLIYLASTLASGVPSRFKSSGSGTEYTLTISDLECDDAATYYCQSNYNGNYGFGGGTEVEVK", "ELISA OD450 / OD450": 2.77}
{"Binder": "324E2 (antibody, V domains shown, chimeric counterpart m6; also called rabbit IgG of BCC well 324E2) VH: QSVEESGGRLVTPGTPLTLTCTVSGFSLSNNAITWVRQAPGKGLEYIGIISSSGTTYYASWAKGRFTISKTSSTTVDLKMTSLTTEDTATYFCAGAFSVWGPGTLVTVSS VL: AQVLTQTPSSVSAAVGGTVTINCQSSQSVNNNDLAWFQQKPGQPPKRLIYWASKLASGVPSRFKGSGSGTQFILTISDLECDDAATYYCAGGYSGNIYGFGGGTEVEVK", "ELISA OD450 / OD450": 1.29}
{"Binder": "330F11 (antibody, V domains shown, chimeric counterpart m9; also called rabbit IgG of BCC well 330F11) VH: QSVEESGGRLVTPGTPLTLTCTVSGFSLNNYWMSWVRQAPGEGLEWIGTISSGAYTWFATWATGRFTISKTSTTVDLSITSPTTEDTATYFCARYSSTTDWTYFNIWGPGTLVTVSS VL: DVVMTQTPASVEAAVGGTVTIKCQASQSINNYLAWYQQKPGQPPKLLIYRASTLESGVPSRFKGSGSGTQFTLTISDLECADAATYYCQSYNGVGRTAFGGGTEVEFK", "ELISA OD450 / OD450": 0.28}

Now for a further binder.
For record 324C7 (antibody, V domains shown, chimeric counterpart m4; also called rabbit IgG of BCC well 324C7) VH: QSVEESGGRLVTPGTPLTLTCTVSGFSLSGAGVSWVRQAPGKGLEWIGYIDSGATTYYASWAKGRFTISKASTTVDLKIASPTTEDTATYFCARGYYGMDPWGQGTLVTVSS VL: DIVMTQTPASVEVAVGGTVTIKCQASQNIGSDLAWYQQKPGQPPKLLIYTTSNLASGVPSRFKGSGSGTGFTLTISDLECADAASYCCQGGYFSGRNIYGNAFGGGTEVVVK the listed ELISA OD450 is 2.46

Origin of the recorded values: patent US20210277109A1
